Where these numbers come from: PubChem BioAssay AID1963427

system: 317291-083-R-J1-PDC complex spheroid growth; assay: Anticancer human tumor 317291-083-R-J1-PDC patient-derived soft tissue sarcoma cell line growth inhibition [Asc]; details: second compound 0.316 µM; first compound 0.03 µM; active compounds read low
metricName: viability, T/C (%)
The figure you give is taken to be in %; do not add the unit.

Query string: Missing value: viability, T/C, 317291-083-R-J1-PDC complex spheroid growth, entry NC(=O)C(=Cn1cnc(-c2cc(C(F)(F)F)cc(C(F)(F)F)c2)n1)c1cncnc1 + Cc1c(S(C)(=O)=O)c(-c2cc(F)cc(N3CCN(c4ccc(NS(=O)(=O)c5ccc(NC(CCN6CCC(C(=O)OCCCP(=O)(O)O)CC6)CSc6ccccc6)c(S(=O)(=O)C(F)(F)F)c5)cc4)CC3)c2)c(-c2ccc(Cl)cc2)n1C(C)C . Fill in?
Result string: 31.9

Query string: Missing value: viability, T/C, 317291-083-R-J1-PDC complex spheroid growth, entry Cc1nc(N2CCC3(CC2)COC(C)C3N)c(CO)nc1Sc1ccnc(N)c1Cl (configuration not stated) + Cc1c(S(C)(=O)=O)c(-c2cc(F)cc(N3CCN(c4ccc(NS(=O)(=O)c5ccc(NC(CCN6CCC(C(=O)OCCCP(=O)(O)O)CC6)CSc6ccccc6)c(S(=O)(=O)C(F)(F)F)c5)cc4)CC3)c2)c(-c2ccc(Cl)cc2)n1C(C)C . Fill in?
Result string: 91.3

###

test system: 317291-083-R-J1-PDC complex spheroid growth; assay: Anticancer human tumor 317291-083-R-J1-PDC cell line growth inhibition [Asc]; conditions: second compound 0.0316 µM; first compound 0.0949 µM; active = viability on the fitted dose curve at most 10% of control; inactive = the rest;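 note: compound exposure lasted seven days after spheroids formed for three days; 100% = DMSO vehicle control wells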
Entry note: the call must match one of yes (active), no (inactive)

Query string: Status in this test for CCN1C(C(=O)NC23CCC(C(=O)O)(CC2)CC3)C(c2cccc(Cl)c2F)C2(C(=O)Nc3cc(Cl)ccc32)C12CCCCC2 (stereo unspecified) + Cc1c(S(C)(=O)=O)c(-c2cc(F)cc(N3CCN(c4ccc(NS(=O)(=O)c5ccc(NC(CCN6CCC(C(=O)OCCCP(=O)(O)O)CC6)CSc6ccccc6)c(S(=O)(=O)C(F)(F)F)c5)cc4)CC3)c2)c(-c2ccc(Cl)cc2)n1C(C)C ?
Result string: no

Query string: Status in this test for NC(=O)C(=Cn1cnc(-c2cc(C(F)(F)F)cc(C(F)(F)F)c2)n1)c1cncnc1 + Cc1c(S(C)(=O)=O)c(-c2cc(F)cc(N3CCN(c4ccc(NS(=O)(=O)c5ccc(NC(CCN6CCC(C(=O)OCCCP(=O)(O)O)CC6)CSc6ccccc6)c(S(=O)(=O)C(F)(F)F)c5)cc4)CC3)c2)c(-c2ccc(Cl)cc2)n1C(C)C ?
Result string: no

Query string: Status in this test for CCN1C(C(=O)NC23CCC(C(=O)O)(CC2)CC3)C(c2cccc(Cl)c2F)C2(C(=O)Nc3cc(Cl)ccc32)C12CCCCC2 (stereo unspecified) + CNC(C)C(=O)NC1CN(S(=O)(=O)c2cccc(S(=O)(=O)N3CCC4CCC(C(=O)NC(c5ccccc5)c5ccccc5)N4C(=O)C(NC(=O)C(C)NC)C3)c2)CCC2CCC(C(=O)NC(c3ccccc3)c3ccccc3)N2C1=O ?
Result string: no

Query string: Status in this test for Cc1nc(N2CCC3(CC2)COC(C)C3N)c(CO)nc1Sc1ccnc(N)c1Cl (stereo unspecified) + CNC(C)C(=O)NC1CN(S(=O)(=O)c2cccc(S(=O)(=O)N3CCC4CCC(C(=O)NC(c5ccccc5)c5ccccc5)N4C(=O)C(NC(=O)C(C)NC)C3)c2)CCC2CCC(C(=O)NC(c3ccccc3)c3ccccc3)N2C1=O ?
Result string: no

Query string: Status in this test for NC(=O)C(=Cn1cnc(-c2cc(C(F)(F)F)cc(C(F)(F)F)c2)n1)c1cncnc1 + CNC(C)C(=O)NC1CN(S(=O)(=O)c2cccc(S(=O)(=O)N3CCC4CCC(C(=O)NC(c5ccccc5)c5ccccc5)N4C(=O)C(NC(=O)C(C)NC)C3)c2)CCC2CCC(C(=O)NC(c3ccccc3)c3ccccc3)N2C1=O ?
Result string: yes

Query string: Status in this test for Cc1nc(N2CCC3(CC2)COC(C)C3N)c(CO)nc1Sc1ccnc(N)c1Cl (stereo unspecified) + Cc1c(S(C)(=O)=O)c(-c2cc(F)cc(N3CCN(c4ccc(NS(=O)(=O)c5ccc(NC(CCN6CCC(C(=O)OCCCP(=O)(O)O)CC6)CSc6ccccc6)c(S(=O)(=O)C(F)(F)F)c5)cc4)CC3)c2)c(-c2ccc(Cl)cc2)n1C(C)C ?
Result string: no
